assay: blockers of an Epstein-Barr virus protein-peptide interaction – biochemical, fluorescence polarization, dose response (AID 1419); conditions: cell-free protein-peptide binding, 2 h
Activity calls are given as the source filed them. No rule for the calls is given here.
Permitted responses: Yes (active), No (inactive)

The following compounds have reported results that may help.
COc1ccc(CCNC(=O)COc2nsnc2N2CCOCC2)cc1OC    No
O=C1c2cccc3c(O)ccc(c23)C(=O)N1Cc1ccccc1    Yes
Cc1cc(/C=C(/C#N)c2nc3ccccc3[nH]2)c(C)n1-c1cc(C(=O)O)cc(C(=O)O)c1    Yes
O=S(=O)(Nc1cc2nc3ccccc3nc2n1Cc1ccccc1)c1ccc(Cl)cc1    Yes
CCOC(=O)C1CCN(C(=O)Nc2ccc3nc(-c4ccco4)c(-c4ccco4)nc3c2)CC1    Yes
COC(=O)C1C=C2c3cccc4[nH]cc(c34)CC2N(C)C1 (stereo not given)    Yes
O=C1CCN2C=Nc3cccc4ccc1c2c34    Yes
COc1ccc2c(c1)c1nc3ccccc3nc1n2Cc1ccc(OC)c(OC)c1    No
Cc1cccc(-n2c(SCc3cc(=O)n4ccsc4n3)nc3ccccc32)c1    Yes

Here is the next item to consider.
Prompt: Hi, sorry to bother you, what did the test record for COc1cc(/C=C2/C(=O)c3cccc([N+](=O)[O-])c3C2=O)c(Br)cc1O ?
Completion: No

---

assay: blockers of an Epstein-Barr virus protein-peptide interaction – biochemical, fluorescence polarization, dose response (AID 1419); conditions: cell-free protein-peptide binding, 2 h
Active and inactive are the calls of the source. The rule behind the calls is not given here.
Returns: one label drawn from active, inactive

Worked examples, 9 compounds total:
CCn1c(CSc2n[nH]c(N)n2)nc2cc(C(=O)O)ccc21    active
CCOC(=O)/C(C#N)=C\c1ccc(N2CCN(C/C=C/c3ccccc3)CC2)cc1    active
CN1C(=O)/C(=C2\SC(=S)N(CCCCCC(=O)O)C2=O)c2ccccc21    inactive
O=[N+]([O-])c1ccc(/C=N/n2c(CO)nc3ccccc32)s1    active
COc1ccc(C2CC(c3cccs3)=NN2c2ccc(C=O)cc2)cc1 (stereo not given)    active
CC(C)C[C@H]1C(=O)N2CCCC2[C@]2(O)O[C@](NC(=O)[C@@H]3C=C4c5cccc6[nH]cc(c56)CC4N(C)C3)(C(C)C)C(=O)N12 (stereo not given in full)    active
CN(C)c1ccc(/C=C/C(=O)c2cccc(Br)c2)cc1    active
O=c1[nH]c2ccc(N=Cc3c(O)ccc4cc(Br)ccc34)cc2[nH]1    active
COc1ccc(Cc2nnc(NC(=O)Cc3cccs3)s2)cc1    inactive

Prompt: Can you look up the reported call for Cc1ccnc(N2C(=O)c3cccc4c([N+](=O)[O-])ccc(c34)C2=O)c1 for me?
Completion: active

---

test: blockers of an Epstein-Barr virus protein-peptide interaction – biochemical, fluorescence polarization, dose response (AID 1419); settings: cell-free protein-peptide binding, 2 h
Active and inactive are the calls of the source. How the calls were made is not given here.
Write down the outcome that applies. Available outcomes: true for active, false for inactive

Consider the following illustrative entries.
Cc1ccc([N+](=O)[O-])cc1N=Nc1c(-c2ccc([N+](=O)[O-])cc2)[nH]n(C(N)=S)c1=O    true
CCc1cc[n+](-c2nc3ccccc3nc2[N-]S(=O)(=O)c2ccc(Br)s2)cc1    true
Cc1ccc(NC(=O)CN2C(=O)/C(=C3\SC(=S)N(C4CCS(=O)(=O)C4)C3=O)c3ccccc32)cc1 (configuration not stated)    true
N=C1CCC(=N)c2c1c(O)c1ccccc1c2O    true
Cc1nnc(N2C(=O)C(O)=C(C(=O)c3ccco3)C2c2ccc(F)cc2)s1 (configuration not stated)    true

// switching to the query compound
Prompt: Per the assay record, what outcome was assigned to Nc1c(NCCC2=CCCCC2)c(=O)[nH]c(=O)n1Cc1ccccc1 ?
Completion: false

---

assay: blockers of an Epstein-Barr virus protein-peptide interaction – biochemical, fluorescence polarization, dose response (AID 1419); conditions: cell-free protein-peptide binding, 2 h
Active and inactive are the calls of the source. How the calls were made is not given here.
Return exactly one item of active, inactive

CCn1c(COc2ccccc2C)nnc1SCC(=O)N1CCC(C)CC1    inactive
Cc1ccc(NC(=O)CN2C(=O)N/C(=C/c3cccn3-c3ccc(C(=O)O)cc3)C2=O)cc1    inactive
C/C(N)=C(/C#N)C(=O)CSc1nnc(Nc2ccccc2)s1    inactive
Cc1ccc2[nH]c(O)c(N=NC(=O)c3ccc(NS(=O)(=O)c4cccs4)cc3)c2c1    inactive
COC(=O)c1ccccc1NC(=O)CCS(=O)(=O)c1ccc(Br)cc1    active

Prompt: Look up the recorded call for CC(=C/c1ccccc1)/C=N/NC(=O)c1cnccn1 in this test.
Completion: inactive

Prompt: In this assay, the call recorded for CCOC(=O)c1c(/N=C/c2c(O)n(-c3ccc(F)cc3)c(=S)[nH]c2=O)sc2c1CCCC2 was what?
Completion: active

Prompt: Name the outcome recorded for O=C1c2ccccc2-c2ncnc3c(N4CCOCC4)cc(N4CCOCC4)c1c23 in the assay.
Completion: inactive

Prompt: Could you kindly confirm the outcome this assay logged for Cc1nc2nc(-c3cccs3)cn2nc1C ?
Completion: active

---

assay: blockers of an Epstein-Barr virus protein-peptide interaction – biochemical, fluorescence polarization, dose response (AID 1419); conditions: cell-free protein-peptide binding, 2 h
Activity calls are given as the source filed them. How the calls were made is not given here.
Classes to choose from: active, inactive

Check out these entries, answers already filled in.
COc1ccc(-c2cc(C(F)(F)F)c3c(n2)sc2c(O)cc(=O)[nH]c23)c(OC)c1    active
CN(C)c1ccc(/C=C(\C#N)C(=O)Nc2nc3c(s2)CCN(Cc2ccccc2)C3)cc1    active
COC(=O)CCCC1=CC2=CC(=O)C(C)(OC(=O)c3cccs3)C(=O)C2=CN1c1cccc(C#N)c1 (stereo not given)    inactive
Cn1c(=O)[nH]c2cc(Cl)cnc21    active
Fc1ccccc1C(c1nnnn1C1CCCC1)N1CCN(Cc2ccccc2)CC1 (stereo not given)    inactive
CCCN1CC=C2C(C#N)=C(N)C(C#N)(C#N)C(c3cccc(OC)c3OC)C2C1 (stereo not given)    active

Prompt: # lookup: test call for CCCCN1C(=O)C2Cc3c([nH]c4ccccc34)CN2C1=S (stereo not given)
Completion: active

Prompt: // return assay outcome for CCCNC(=O)COC(=O)c1[nH]c(C)c(C(=O)OCC)c1C
Completion: inactive

---

experiment: blockers of an Epstein-Barr virus protein-peptide interaction – biochemical, fluorescence polarization, dose response (AID 1419); details: cell-free protein-peptide binding, 2 h
Calls of active or inactive are those of the source. The rule behind the calls is not given here.
Please answer using one outcome listed in YES for active, NO for inactive

COC(=O)CN1C(=O)N(c2ccccc2)C(N(O)C(=O)Nc2ccccc2)C1(C)C (stereo unspecified)    NO
Cc1ccccc1N1C(=O)c2cccc3c(N(C)CCO)ccc(c23)C1=O    YES
O=S(=O)(Nc1nc2ccccc2nc1-[n+]1cccc(N=C([O-])c2ccccc2Cl)c1)c1ccccc1    YES
O=C1Nc2ccc(Cl)cc2C12Nc1ccccc1-c1nnc(SCc3ccccc3F)nc1O2 (stereo unspecified)    YES
COc1cc(-c2ccc(Nc3ccccc3C(=O)O)c(OC)c2)ccc1Nc1ccccc1C(=O)O    NO

Moving on to another compound below.
Prompt: Recorded test call requested for O=C(CSc1nnc(SCc2ccccc2)s1)N/N=C/C=C/c1ccco1
Completion: NO

---

assay: blockers of an Epstein-Barr virus protein-peptide interaction – biochemical, fluorescence polarization, dose response (AID 1419); conditions: cell-free protein-peptide binding, 2 h
Active and inactive are the calls of the source. The rule behind the calls is not given here.
Thanks in advance; please answer with one of these: 1 (yes) = active, 0 (no) = inactive

Some solved cases for reference:
CCOC(=O)Cn1c(=O)c(-c2cc(Br)ccc2N)nc2ccccc21    0 (no)
CCOc1ccc(C2CC(c3c(O)c4ccccc4oc3=O)=NN2c2ccccc2)cc1OC (centres undefined)    1 (yes)
Cc1c2cc(O)c(=O)cc-2oc2cc(O)c(O)cc12    1 (yes)

# next compound below
Prompt: What was the test verdict on CN(N=Nc1ccc([N+](=O)[O-])cc1)c1ccccc1 ?
Completion: 1 (yes)

---

test: blockers of an Epstein-Barr virus protein-peptide interaction – biochemical, fluorescence polarization, dose response (AID 1419); conditions: cell-free protein-peptide binding, 2 h
The source made the active and inactive calls. How the calls were made is not given here.
Consider the following compounds; for each one, report its IC50.

O=C(CSc1ccsc1[N+](=O)[O-])Nc1cccc(F)c1    > 54 µM (inactive)
O=C(Cc1nc2ccccc2[nH]c1=O)c1ccccc1    9.54 µM
O=C(N=Nc1c(O)[nH]c2ccccc12)c1cc(-c2ccc(F)cc2)n[nH]1    > 54 µM (inactive)
CCN(CC)c1ccc(/C=c2\sc3nnc(-c4ccccc4Cl)n3c2=O)cc1    2.65 µM
Cc1cc(C)c2cc3c(ccn3C3OC[C@H](O)[C@H](O)[C@H]3O)cc2n1 (stereo partly specified)    3.78 µM

// each listed compound needs a value for IC50
1. NC(=O)c1c(NC(=O)CSc2nnc(-c3ccco3)n2-c2ccccc2)sc2c1CCC2
2. Nn1c(SCC(=O)NC(=O)NCc2ccco2)nnc1-c1ccc(OC(F)F)cc1

Completion:
46 µM (inactive)
31.1 µM (inactive)

This collection of values is drawn from PubChem BioAssay AID1419.
